Data provenance is the supplement of paper PMC4466140.

Examples of binders with documented SPOT peptide array binding signal intensity follow.
SYSTEM_TESTED: AgRvs167
RUN_DESCRIPTION: SPOT peptide array binding signal intensity (averaged, normalized) (arbitrary units (background-subtracted, floor 0; scale differs between SH3 domains)); higher = stronger binding of the SH3 domain to the peptide
# respond with the number and nothing more

# annotated cases, reported SPOT peptide array binding signal intensity shown
Enquiry: Bench note: what SPOT peptide array binding signal intensity did "VATSTSPKLPPRGKQ" show?
Return: 745

Enquiry: Bench note: what SPOT peptide array binding signal intensity did "VPKEPAPAPPPEPDM" show?
Return: 0.167

Enquiry: Bench note: what SPOT peptide array binding signal intensity did "QDKEGIPPDQQRLIF" show?
Return: 0.333

Enquiry: Bench note: what SPOT peptide array binding signal intensity did "DAPASKPSVPPRNYF" show?
Return: 13.2

Enquiry: Bench note: what SPOT peptide array binding signal intensity did "GKFIPSRPAPKPPSS" show?
Return: 2.83

Enquiry: Bench note: what SPOT peptide array binding signal intensity did "KKAPPPVVKPKPRNF" show?
Return: 6

Enquiry: Bench note: what SPOT peptide array binding signal intensity did "TKFRISLGLPVGAIM" show?
Return: 21.3

Enquiry: Bench note: what SPOT peptide array binding signal intensity did "KDKSRPPRPPPKPLH" show?
Return: 1.33

Enquiry: Bench note: what SPOT peptide array binding signal intensity did "DTIDNVKSKIQDKEG" show?
Return: 0.5

Enquiry: Bench note: what SPOT peptide array binding signal intensity did "DFTLPPPPPPPGLDE" show?
Return: 1.67

Please examine the following record next.
Enquiry: Bench note: what SPOT peptide array binding signal intensity did "HVRRSILALPLGVLL" show?
Return: 0.5
